test system: SK-MEL-5 melanoma; experiment: NCI-60 one-dose screen, 48 h (100 = growth as untreated, 0 = no growth, -100 = all killed); conditions: 10 µM unless noted
About 83,000 compounds went through this panel and 20% of them were active in at least one assay; those are over-represented in the sample as a whole.
measurementType: growth (%)

{"compound": "CCSCC1CC(O)(c2ccccc2)CC(c2ccc(F)cc2)O1 (stereo not drawn)", "readoutUnit": "%", "testValue": -36}
{"compound": "CC1=CCC(OC(=O)C(C)(O)CCC(O)(C(=O)OC2(C)C=CC(O)(C(C)C)CC2)C(C)C)(C(C)C)CC1 (stereo not drawn)", "readoutUnit": "%", "testValue": 101}
{"compound": "CC(C)(C)[Si](C)(C)OC1[C@@H](O[Si](C)(C)C(C)(C)C)[C@@H](CNC(=O)NC(=O)CCl)O[C@H]1n1cnc2c(NC(=O)Nc3ccccc3)ncnc21 (stereo partly drawn)", "readoutUnit": "%", "testValue": -87.7}
